# test-system: Pyrococcus horikoshii biotin protein ligase (PhBPL) (Pyrococcus horikoshii)
# Sequence (O57883 1-235): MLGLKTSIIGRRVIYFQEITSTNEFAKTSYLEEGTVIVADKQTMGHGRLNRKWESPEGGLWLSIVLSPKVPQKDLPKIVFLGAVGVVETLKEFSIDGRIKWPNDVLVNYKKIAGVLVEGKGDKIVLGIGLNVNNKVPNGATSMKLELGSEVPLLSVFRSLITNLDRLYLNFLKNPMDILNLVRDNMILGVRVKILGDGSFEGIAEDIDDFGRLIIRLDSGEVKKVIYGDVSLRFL
# method-summary: Steady state fluorescence titration of PhBPL with ligand
# Type: binding
# experimental-setup: KD, 50°C, Standard Buffer pH 7.5
I'd appreciate it if you could supply pKd values for the items below.
// pKd here means minus log10 of the molar concentration (mol/L)

Measured pKd for this entry Nc1ncnc2c1ncn2[C@@H]1O[C@H](COP(=O)(O)OP(=O)(O)OP(=O)(O)O)[C@@H](O)[C@H]1O [ATP, adenosine 5′-triphosphate] on Pyrococcus horikoshii biotin protein ligase (PhBPL) (Pyrococcus horikoshii): 3.37

Reported Pyrococcus horikoshii biotin protein ligase (PhBPL) (Pyrococcus horikoshii) pKd for item O=C(O)CCCC[C@@H]1SC[C@@H]2NC(=O)N[C@@H]21 was 6.41

###

# test-system: Pyrococcus horikoshii biotin protein ligase (PhBPL) (Pyrococcus horikoshii, UniProt O57883)
# method-summary: Steady state fluorescence titration of PhBPL with ligand
# Assay type: binding
# experimental-setup: KD, 30°C, Standard Buffer pH 7.5
I'd appreciate it if you could supply Kd values for the items below.

Summary for this molecule, O=C(O)CCCC[C@@H]1SC[C@@H]2NC(=O)N[C@@H]21 [Biotin, d-biotin] : Kd is 0.2 µM

The recorded Kd for Nc1ncnc2c1ncn2[C@@H]1O[C@H](COP(=O)(O)OP(=O)(O)OP(=O)(O)O)[C@@H](O)[C@H]1O [ATP, adenosine 5′-triphosphate] is 290 µM

###

# test-system: Pyrococcus horikoshii biotin protein ligase (PhBPL) (Pyrococcus horikoshii, UniProt O57883)
# method-summary: Steady state fluorescence titration of PhBPL with ligand
# Type: binding
# experimental-setup: KD, 10°C, Standard Buffer pH 7.5
assay-readout: Kd (nM)
State just the number; it will be interpreted in nM.

The compound listed as O=C(O)CCCC[C@@H]1SC[C@@H]2NC(=O)N[C@@H]21 shows Kd equal to 120

###

# test-system: Pyrococcus horikoshii biotin protein ligase (PhBPL) (Pyrococcus horikoshii, UniProt O57883)
# method-summary: Steady state fluorescence titration of PhBPL with ligand
# Type: binding
# experimental-setup: KD, 20°C, Standard Buffer pH 7.5
Would you kindly list Kd for each of these compounds?
# value in µM; strip the unit string

Summary for this compound, O=C(O)CCCC[C@@H]1SC[C@@H]2NC(=O)N[C@@H]21 : Kd is 0.2

The reported value for Nc1ncnc2c1ncn2[C@@H]1O[C@H](COP(=O)(O)OP(=O)(O)OP(=O)(O)O)[C@@H](O)[C@H]1O [ATP, adenosine 5′-triphosphate] in terms of Kd is 240

###

# test-system: Pyrococcus horikoshii biotin protein ligase (PhBPL) (Pyrococcus horikoshii)
# method-summary: Steady state fluorescence titration of PhBPL with ligand
# Format: binding
# experimental-setup: KD, temperature range of 20-50°C
pKd: −log10 of the molar value.
assay-readout: pKd

pKd value, target or system Pyrococcus horikoshii biotin protein ligase (PhBPL) (Pyrococcus horikoshii), for Nc1ncnc2c1ncn2[C@@H]1O[C@H](COP(=O)(O)OP(=O)(O)OP(=O)(O)O)[C@@H](O)[C@H]1O [ATP, adenosine 5′-triphosphate] : 3.40 to 3.70

###

# test-system: Pyrococcus horikoshii biotin protein ligase (PhBPL) (Pyrococcus horikoshii, UniProt O57883)
# method-summary: Steady state fluorescence titration of PhBPL with ligand
# Format: binding
# experimental-setup: KD, 40°C, Standard Buffer pH 7.5
assay-readout: Kd (µM)
// return numeric value only (unit: µM, not printed)

Lookup result for O=C(O)CCCC[C@@H]1SC[C@@H]2NC(=O)N[C@@H]21 ; measured Kd: 0.51

Nc1ncnc2c1ncn2[C@@H]1O[C@H](COP(=O)(O)OP(=O)(O)OP(=O)(O)O)[C@@H](O)[C@H]1O [ATP, adenosine 5′-triphosphate] yielded Kd of 300
